assayedSystem: Mast/stem cell growth factor receptor Kit (Homo sapiens, UniProt P10721, 560-578DEL)
Sequence (P10721 whole entry, looked up, stated change not applied): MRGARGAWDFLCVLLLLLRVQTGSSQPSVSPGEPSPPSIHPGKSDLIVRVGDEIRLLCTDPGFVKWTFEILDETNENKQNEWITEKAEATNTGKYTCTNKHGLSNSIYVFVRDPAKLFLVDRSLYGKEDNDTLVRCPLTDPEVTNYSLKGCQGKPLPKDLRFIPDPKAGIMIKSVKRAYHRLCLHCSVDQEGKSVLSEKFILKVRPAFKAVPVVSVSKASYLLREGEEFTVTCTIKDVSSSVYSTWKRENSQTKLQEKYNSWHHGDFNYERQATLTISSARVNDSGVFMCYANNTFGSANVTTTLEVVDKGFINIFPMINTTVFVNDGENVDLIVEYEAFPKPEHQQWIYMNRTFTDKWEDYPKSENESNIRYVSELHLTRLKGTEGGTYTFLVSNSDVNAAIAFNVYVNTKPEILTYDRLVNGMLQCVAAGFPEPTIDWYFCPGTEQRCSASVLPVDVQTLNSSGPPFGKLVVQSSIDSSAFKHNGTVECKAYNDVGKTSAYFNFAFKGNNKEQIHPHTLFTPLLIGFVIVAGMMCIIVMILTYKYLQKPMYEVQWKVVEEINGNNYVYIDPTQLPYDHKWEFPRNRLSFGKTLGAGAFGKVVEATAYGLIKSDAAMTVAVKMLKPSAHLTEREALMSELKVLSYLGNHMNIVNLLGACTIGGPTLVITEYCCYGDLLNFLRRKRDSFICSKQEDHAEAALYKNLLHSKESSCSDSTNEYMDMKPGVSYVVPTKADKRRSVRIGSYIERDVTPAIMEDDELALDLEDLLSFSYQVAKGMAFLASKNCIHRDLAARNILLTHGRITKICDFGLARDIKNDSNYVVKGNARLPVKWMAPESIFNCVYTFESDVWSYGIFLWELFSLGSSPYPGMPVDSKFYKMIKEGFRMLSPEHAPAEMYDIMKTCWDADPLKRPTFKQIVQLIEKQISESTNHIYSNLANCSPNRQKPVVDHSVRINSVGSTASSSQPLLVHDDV
Format: cell-based, GISTT1
experimentalEndpoint: EC50

EC50 in this record for COc1cc2nccc(Oc3ccc(NC(=O)Cc4ccc(Cl)c(C(F)(F)F)c4)cc3)c2cc1OC : < 100 nM

###

method: Inhibition of recombinant human GST-tagged FLT4 cytoplasmic domain Q890H/V1128L/H1146R mutant (800 to 1297 residues) expressed in baculovirus expression system by Z-lyte assay
experimentalEndpoint: pIC50
Worth noting: pIC50 values are minus log10 of concentrations stated in mol/L.

pIC50 in this record for COc1cc2nccc(Oc3ccc(NC(=O)Cc4ccc(Cl)c(C(F)(F)F)c4)cc3)c2cc1OC : 6.92

###

assayedSystem: Mast/stem cell growth factor receptor Kit (Homo sapiens, UniProt P10721, 560-578DEL/T670I)
Sequence (P10721 whole entry, looked up, stated change not applied): as the sequence (P10721 whole entry, looked up, stated change not applied) above
pEC50: −log10 of the molar value.
experimentalEndpoint: pEC50

pEC50 in this record for COc1cc2nccc(Oc3ccc(NC(=O)Cc4ccc(Cl)c(C(F)(F)F)c4)cc3)c2cc1OC : > 7.00

###

method: Half life in Sprague-Dawley rat at 10 mg/kg, po by LC-MS/MS analysis
Type: ADME, organism-based
measurementSetup: in vivo
experimentalEndpoint: half-life (h)
Write the answer as a number in h, unit excluded.

half-life in this record for COc1cc2nccc(Oc3ccc(NC(=O)Cc4ccc(Cl)c(C(F)(F)F)c4)cc3)c2cc1OC : 6.41

###

assayedSystem: Mast/stem cell growth factor receptor Kit (Mus musculus) (UniProt P05532)
Sequence (P05532 whole entry): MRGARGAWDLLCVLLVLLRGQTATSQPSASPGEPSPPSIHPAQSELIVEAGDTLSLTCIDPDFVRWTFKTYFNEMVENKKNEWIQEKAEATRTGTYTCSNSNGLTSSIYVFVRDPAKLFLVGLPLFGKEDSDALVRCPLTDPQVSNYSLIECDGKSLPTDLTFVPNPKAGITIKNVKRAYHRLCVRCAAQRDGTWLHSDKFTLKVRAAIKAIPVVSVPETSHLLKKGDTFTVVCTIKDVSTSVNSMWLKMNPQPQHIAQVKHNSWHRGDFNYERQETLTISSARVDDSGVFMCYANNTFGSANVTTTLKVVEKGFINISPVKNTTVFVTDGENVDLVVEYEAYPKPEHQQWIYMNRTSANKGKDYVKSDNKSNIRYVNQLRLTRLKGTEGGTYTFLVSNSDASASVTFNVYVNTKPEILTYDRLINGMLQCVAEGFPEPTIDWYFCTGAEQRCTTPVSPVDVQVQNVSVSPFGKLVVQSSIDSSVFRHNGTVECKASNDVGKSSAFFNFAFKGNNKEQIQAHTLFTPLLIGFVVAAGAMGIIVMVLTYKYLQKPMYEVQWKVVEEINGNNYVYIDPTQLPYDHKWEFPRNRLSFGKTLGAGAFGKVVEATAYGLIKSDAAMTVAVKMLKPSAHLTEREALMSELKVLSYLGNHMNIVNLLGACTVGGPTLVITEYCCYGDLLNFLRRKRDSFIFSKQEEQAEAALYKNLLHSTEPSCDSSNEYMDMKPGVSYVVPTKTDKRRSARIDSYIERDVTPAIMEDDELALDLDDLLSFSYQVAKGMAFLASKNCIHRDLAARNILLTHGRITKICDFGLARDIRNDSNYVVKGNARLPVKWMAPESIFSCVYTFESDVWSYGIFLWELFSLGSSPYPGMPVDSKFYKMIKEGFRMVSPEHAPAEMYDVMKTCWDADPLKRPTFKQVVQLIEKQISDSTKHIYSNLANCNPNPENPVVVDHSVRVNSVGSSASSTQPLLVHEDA
method: Inhibition of c-KIT in mouse BAF3(transformed) cells assessed as growth inhibition after 72 hrs by CCK8 assay
Could you please report measured log10 GI50 for the items listed next?
// stored as log10 of GI50 expressed in nM

log10 GI50 in this record for COc1cc2nccc(Oc3ccc(NC(=O)Cc4ccc(F)c(F)c4)cc3)c2cc1OC : 2.49

log10 GI50 in this record for COc1cc2nccc(Oc3ccc(NC(=O)Cc4ccc(Cl)c(C(F)(F)F)c4)c(Cl)c3)c2cc1OC : 1.91

log10 GI50 in this record for COc1cc2nccc(Oc3ccc(NC(=O)Cc4ccc(Cl)c(C(F)(F)F)c4)cc3C(F)(F)F)c2cc1OC : 3.48

log10 GI50 in this record for COc1cc2nccc(Oc3ccc(NC(=O)Cc4ccc(Cl)c(Cl)c4)cc3)c2cc1OC : 2.53

log10 GI50 in this record for COc1cc2nccc(Oc3ccc(NC(=O)Cc4ccc(Cl)c(C(F)(F)F)c4)c(F)c3)c2cc1OC : 1.69

log10 GI50 in this record for COc1ccc(CC(=O)Nc2ccc(Oc3ccnc4cc(OC)c(OC)cc34)cc2)cc1OC : 2.50

log10 GI50 in this record for COc1cc2nccc(Oc3ccc(C(=O)NCc4ccc(C(F)(F)F)cc4)cc3)c2cc1OC : 3.46

log10 GI50 in this record for Cc1ccc(NC(=O)c2ccc(CN3CCN(C)CC3)cc2)cc1Nc1nccc(-c2cccnc2)n1 [IMATINIB] : 2.54

log10 GI50 in this record for COc1cc2nccc(Oc3ccc(NC(=O)Cc4ccc(C)c(C)c4)cc3)c2cc1OC : 1.43

log10 GI50 in this record for COc1cc2nccc(N(C)c3ccc(NC(=O)Cc4ccc(Cl)c(C(F)(F)F)c4)cc3)c2cc1OC : 3.63

log10 GI50 in this record for COc1cc2nccc(Oc3ccc(NC(=O)Cc4ccccc4C(F)(F)F)cc3)c2cc1OC : 2.63

log10 GI50 in this record for COc1cc2nccc(Oc3ccc(NC(=O)Cc4ccc(Cl)c(C(F)(F)F)c4)cc3C#N)c2cc1OC : 3.00

log10 GI50 in this record for COc1cc2nccc(Oc3ccc(NC(=O)Cc4cccc(F)c4)cc3)c2cc1OC : 2.97

log10 GI50 in this record for COc1cc2nccc(Oc3ccc(NC(=O)Cc4ccc(F)c(C(F)(F)F)c4)cc3)c2cc1OC : 1.38

log10 GI50 in this record for COc1cc2nccc(Oc3ccc(NC(=O)Cc4ccc(F)cc4F)cc3)c2cc1OC : 1.60

log10 GI50 in this record for COc1cc2nccc(Oc3ccc(C(=O)NCc4cccc(C(F)(F)F)c4)cc3)c2cc1OC : 3.37

log10 GI50 in this record for COc1cc2nccc(Oc3ccc(NC(=O)Cc4ccc(Cl)c(C(F)(F)F)c4)cc3C)c2cc1OC : 2.02

log10 GI50 in this record for CCN(CC)CCNC(=O)c1c(C)[nH]c(/C=C2\C(=O)Nc3ccc(F)cc32)c1C [SUNITINIB] : 0.48

log10 GI50 in this record for COc1cc2nccc(Oc3ccc(NC(=O)Cc4ccc5c(c4)OCO5)cc3)c2cc1OC : 2.04

log10 GI50 in this record for COc1cc2nccc(Oc3ccc(NC(=O)Cc4ccc(C(F)(F)F)cc4)cc3)c2cc1OC : 1.34

log10 GI50 in this record for COc1cc2nccc(Oc3ccc(NC(=O)Cc4ccc(C)c(C(F)(F)F)c4)cc3)c2cc1OC : 1.23

log10 GI50 in this record for COc1cc2nccc(Oc3ccc(NC(=O)Cc4ccc(Cl)c(C(F)(F)F)c4)cc3OC)c2cc1OC : 1.53

log10 GI50 in this record for COc1cc2nccc(Oc3ccc(NC(=O)CC4CCCCC4)cc3)c2cc1OC : 2.80

log10 GI50 in this record for COc1cccc(CC(=O)Nc2ccc(Oc3ccnc4cc(OC)c(OC)cc34)cc2)c1 : 2.47

log10 GI50 in this record for COc1cc2nccc(Oc3ccc(NC(=O)Cc4ccc(Cl)c(C(F)(F)F)c4)cc3F)c2cc1OC : 2.06

log10 GI50 in this record for COc1cc2nccc(Oc3ccc(NC(=O)Cc4ccc5ccccc5c4)cc3)c2cc1OC : 2.05

log10 GI50 in this record for COc1cc2nccc(Oc3ccc(NC(=O)Cc4cccc(C(F)(F)F)c4)cc3)c2cc1OC : 1.30

log10 GI50 in this record for COc1cc2nccc(Oc3ccc(NC(=O)Cc4ccc(Cl)c(C(F)(F)F)c4)cc3Cl)c2cc1OC : 1.89

###

method: Growth inhibition of mouse BAF3 cells measured after 72 hrs by CCK8 assay
Assay type: cell-based
experimentalEndpoint: GI50 at 72 h (nM)
Write the answer as a number in nM, unit excluded.

GI50 at 72 h in this record for COc1cc2nccc(Oc3ccc(NC(=O)Cc4ccc(Cl)c(C(F)(F)F)c4)c(C)c3)c2cc1OC : 4860

GI50 at 72 h in this record for COc1cc2nccc(Oc3ccc(NC(=O)Cc4ccc(Cl)c(Cl)c4)cc3)c2cc1OC : 2030

GI50 at 72 h in this record for COc1cc2nccc(Oc3ccc(NC(=O)Cc4ccc(Cl)c(C(F)(F)F)c4)cc3F)c2cc1OC : 1990
